# Study target: Human COX II (Homo sapiens)
# Construct: A 2.0 kb fragment containing the coding region of either human or murine COX-I or human or murine COX-II
# Sequence (P35354 18-604): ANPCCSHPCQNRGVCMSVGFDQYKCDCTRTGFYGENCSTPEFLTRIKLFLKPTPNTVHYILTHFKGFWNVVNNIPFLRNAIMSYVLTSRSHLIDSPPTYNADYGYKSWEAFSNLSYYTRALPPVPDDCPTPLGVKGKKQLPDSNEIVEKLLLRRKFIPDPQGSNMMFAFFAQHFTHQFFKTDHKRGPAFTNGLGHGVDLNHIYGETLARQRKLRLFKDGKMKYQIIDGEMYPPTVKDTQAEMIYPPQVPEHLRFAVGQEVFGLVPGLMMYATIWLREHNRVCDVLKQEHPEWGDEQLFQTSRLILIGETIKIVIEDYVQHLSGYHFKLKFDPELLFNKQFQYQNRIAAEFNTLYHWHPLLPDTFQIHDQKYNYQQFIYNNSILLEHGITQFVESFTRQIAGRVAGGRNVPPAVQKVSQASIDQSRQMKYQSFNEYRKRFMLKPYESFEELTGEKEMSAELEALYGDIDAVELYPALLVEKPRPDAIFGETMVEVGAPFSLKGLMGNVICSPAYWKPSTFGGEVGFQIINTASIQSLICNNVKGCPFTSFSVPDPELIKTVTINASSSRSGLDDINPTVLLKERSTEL
# Assay remarks: COX II activity in vitro (PGE2 ELISA, recombinant enzyme)
# Condition label: arachidonic acid 10 μM, pre-incubation 10-20 minutes; read-out: Human COX II ID50
Reported metric: IC50
Hi, when you answer, please include the unit after the number. Thanks!

Solved cases (3 shown):
>>> df
                           structure_smiles  test_value
0  CC(C)c1nc(-c2ccc(S(C)(=O)=O)cc2)c(-c2ccc(F)cc2)[nH]1     1200 nM
1  Cc1cccc(-c2[nH]c(C(F)(F)F)nc2-c2ccc(S(N)(=O)=O)cc2)c1      100 nM
2  COCc1nc(-c2ccc(S(C)(=O)=O)cc2)c(-c2ccc(F)cc2)[nH]1     8300 nM

Next:
Please give the measured IC50 for this compound: CSc1ccc(-c2[nH]c(C(F)(F)F)nc2-c2ccc(S(C)(=O)=O)cc2)cc1Cl
300 nM
